- study-system: T1, human CD1c expressed on HEK-293 cells (human, UniProt P29017 18-333; P61769 21-119)
- T1 construct: also called HEK - CD1c
- method-description: flow cytometry, HEK-293 cells, 0.316 µg/ml antibody
readout-kind: Fluorescence Intensity Geomean (normalized to background) (fold over background)
Value expressed in fold over background; do not type the unit.

Study these solved cases before continuing.
| binder | unit-symbol | observed |
| --- | --- | --- |
| 110 (VR12112) (antibody, V domains shown, also called OX110; antibody 110) VH: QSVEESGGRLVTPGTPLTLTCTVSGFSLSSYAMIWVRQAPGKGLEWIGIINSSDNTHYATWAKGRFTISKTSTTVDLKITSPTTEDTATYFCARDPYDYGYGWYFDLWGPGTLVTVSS VL: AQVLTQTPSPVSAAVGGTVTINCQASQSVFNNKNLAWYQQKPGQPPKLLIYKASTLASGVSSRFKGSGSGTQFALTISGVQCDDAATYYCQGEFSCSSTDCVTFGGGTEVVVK | fold over background | 0.9 |
| 111 (VR12113) (antibody, V domains shown, also called OX111) VH: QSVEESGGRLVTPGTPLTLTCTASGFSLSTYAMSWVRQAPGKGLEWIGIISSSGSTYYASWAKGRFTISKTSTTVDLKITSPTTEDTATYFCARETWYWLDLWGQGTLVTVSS VL: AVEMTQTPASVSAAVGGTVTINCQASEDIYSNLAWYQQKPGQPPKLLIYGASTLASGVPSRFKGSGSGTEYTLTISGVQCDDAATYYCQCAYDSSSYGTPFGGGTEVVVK | fold over background | 1 |
| 116 (VR12117) (antibody, V domains shown, also called OX116) VH: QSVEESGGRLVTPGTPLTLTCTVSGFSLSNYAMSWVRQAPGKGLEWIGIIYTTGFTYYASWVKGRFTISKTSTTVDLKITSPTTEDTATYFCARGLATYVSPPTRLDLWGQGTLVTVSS VL: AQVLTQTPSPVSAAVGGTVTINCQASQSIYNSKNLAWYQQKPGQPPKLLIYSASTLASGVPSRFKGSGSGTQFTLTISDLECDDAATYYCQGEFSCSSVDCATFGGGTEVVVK | fold over background | 1.1 |

Query string: Which Fluorescence Intensity Geomean (normalized to background) value is on record for 77A (VR11851) (antibody, V domains shown, also called OX77a; antibody 77a) VH: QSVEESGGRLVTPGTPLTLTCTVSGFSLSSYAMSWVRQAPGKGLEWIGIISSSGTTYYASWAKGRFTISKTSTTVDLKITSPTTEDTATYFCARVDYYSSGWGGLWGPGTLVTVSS VL: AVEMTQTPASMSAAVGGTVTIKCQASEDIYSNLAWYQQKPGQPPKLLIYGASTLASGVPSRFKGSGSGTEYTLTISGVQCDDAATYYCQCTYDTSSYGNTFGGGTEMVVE ?
Result string: 1
